TGT: human GRP receptor (human, UniProt P30550 1-384)
Sequence (P30550 whole entry): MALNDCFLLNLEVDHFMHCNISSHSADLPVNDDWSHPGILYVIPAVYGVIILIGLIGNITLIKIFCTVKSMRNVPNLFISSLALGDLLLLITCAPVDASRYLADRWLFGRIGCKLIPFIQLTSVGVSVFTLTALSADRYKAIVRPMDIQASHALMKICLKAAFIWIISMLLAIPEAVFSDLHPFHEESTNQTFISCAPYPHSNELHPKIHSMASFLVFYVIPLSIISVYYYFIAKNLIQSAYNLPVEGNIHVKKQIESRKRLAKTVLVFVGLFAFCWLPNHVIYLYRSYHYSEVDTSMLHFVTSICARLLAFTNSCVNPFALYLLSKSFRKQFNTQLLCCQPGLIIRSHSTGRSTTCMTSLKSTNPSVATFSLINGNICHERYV
EXPERIMENTAL_DETAILS: cell-based or functional assay
Starred links: 1 amine or outer side, 2 acyl side, 3 side chain; linkers in the order of their positions; H or OH if unused. Non-standard residues stand in square brackets, D forms with d. *: point of attachment. Trp(7-Me) = Cc1cccc2c(C[C@H](N)C(=O)O)c[nH]c12; C20 diacid = O=C(O)CCCCCCCCCCCCCCCCCCC(=O)*; C18 diacid = O=C(O)CCCCCCCCCCCCCCCCC(=O)*; γGlu = O=C(O)[C@H](CCC(=O)[*:2])N[*:1]; Palmitoyl = CCCCCCCCCCCCCCCC(=O)*; 4Pal = N[C@@H](Cc1ccncc1)C(=O)O; Nle = CCCC[C@H](N)C(=O)O; AEEA = NCCOCCOCC(=O)O; βAla = NCCC(=O)O
Collected hIP1 GRPR EC50 values appear next to each entry.
Could you give me the number in nM? Just the number is fine.

| BINDER | DATA_VALUE |
| --- | --- |
| Palmitoyl-[γGlu][AEEA][AEEA]GN[4Pal]WAV[dA]HL[Nle]-NH2 (SMILES CCCCCCCCCCCCCCCC(=O)N[C@@H](CCC(=O)NCCOCCOCC(=O)NCCOCCOCC(=O)NCC(=O)N[C@@H](CC(N)=O)C(=O)N[C@@H](Cc1ccncc1)C(=O)N[C@@H](Cc1c[nH]c2ccccc12)C(=O)N[C@@H](C)C(=O)N[C@H](C(=O)N[C@H](C)C(=O)N[C@@H](Cc1c[nH]cn1)C(=O)N[C@@H](CC(C)C)C(=O)N[C@@H](CCCC)C(N)=O)C(C)C)C(=O)O) [Peptide 94] | 1.45 |
| {C20 diacid}-[γGlu][γGlu][AEEA][AEEA]EGRH[Trp(7-Me)]AV[βAla]HL[Nle]-NH2 (SMILES CCCC[C@H](NC(=O)[C@H](CC(C)C)NC(=O)[C@H](Cc1c[nH]cn1)NC(=O)CCNC(=O)[C@@H](NC(=O)[C@H](C)NC(=O)[C@H](Cc1c[nH]c2c(C)cccc12)NC(=O)[C@H](Cc1c[nH]cn1)NC(=O)[C@H](CCCNC(=N)N)NC(=O)CNC(=O)[C@H](CCC(=O)O)NC(=O)COCCOCCNC(=O)COCCOCCNC(=O)CC[C@H](NC(=O)CC[C@H](NC(=O)CCCCCCCCCCCCCCCCCCC(=O)O)C(=O)O)C(=O)O)C(C)C)C(N)=O) [Peptide 252] | 7.5 |

Turning to the following binder.
Quick check: hIP1 GRPR EC50 of {C18 diacid}-[γGlu][AEEA][AEEA]GRHWAV[dA]HL[Nle]-NH2 (SMILES CCCC[C@H](NC(=O)[C@H](CC(C)C)NC(=O)[C@H](Cc1c[nH]cn1)NC(=O)[C@@H](C)NC(=O)[C@@H](NC(=O)[C@H](C)NC(=O)[C@H](Cc1c[nH]c2ccccc12)NC(=O)[C@H](Cc1c[nH]cn1)NC(=O)[C@H](CCCNC(=N)N)NC(=O)CNC(=O)COCCOCCNC(=O)COCCOCCNC(=O)CC[C@H](NC(=O)CCCCCCCCCCCCCCCCC(=O)O)C(=O)O)C(C)C)C(N)=O) [Peptide 88] ? 5.51
